In this section we review reported GTPγS S1P3/S1P1 (Method A) values for a set of compounds.
Test target: S1P1 (Homo sapiens)
Sequence (P21453 whole entry): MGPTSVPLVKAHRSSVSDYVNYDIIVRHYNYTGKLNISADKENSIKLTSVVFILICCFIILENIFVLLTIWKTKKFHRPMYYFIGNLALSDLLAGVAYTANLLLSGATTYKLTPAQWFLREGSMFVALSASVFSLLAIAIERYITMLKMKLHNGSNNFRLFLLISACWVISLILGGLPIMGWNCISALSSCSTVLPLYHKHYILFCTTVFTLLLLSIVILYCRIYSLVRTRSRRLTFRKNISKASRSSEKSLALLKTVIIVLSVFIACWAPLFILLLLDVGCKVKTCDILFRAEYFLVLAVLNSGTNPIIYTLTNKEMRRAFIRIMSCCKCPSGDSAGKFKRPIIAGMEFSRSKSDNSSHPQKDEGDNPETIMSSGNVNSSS
Assay overview: Method A: Receptor [35S] GTPγS Binding Assay, membranes from S1P1/CHO cells
Format: biochemical
Parameters: expressed in transfected cells; host or cells: S1P1/CHO cells
Measurement setup: ratio of GTPγS S1P3 EC50 to GTPγS S1P1 EC50, Method A
Counter-ions that a name gives are not always drawn.

| Compound | GTPγS S1P3/S1P1 (Method A) |
| --- | --- |
| CC(F)(F)c1c(-c2nc(-c3ccc(CN4CC(C(=O)O)C4)cc3)no2)noc1-c1ccccc1 [Example 9] | 810 |
| CNC(=O)c1c(-c2ccccc2)noc1-c1nc(-c2ccc(CN3CC(C(=O)O)C3)cc2)no1 [Example 14] | 35 |
| O=C(O)C1CN(Cc2ccc(-c3noc(-c4noc(-c5ccccc5)c4-c4ccccc4)n3)c(C(F)(F)F)c2)C1 [Example 25] | 371 |
| CCC(F)(F)c1c(-c2nc(-c3ccc(CN4CC(C(=O)O)C4)cc3)no2)noc1-c1ccccc1 [Example 10, trifluoroacetic acid salt] | 230 |

Values compiled from patent US8354398B2.
